Target: AKT1 E17K (Homo sapiens, UniProt P31749, E17K)
Sequence (P31749 whole entry E17K): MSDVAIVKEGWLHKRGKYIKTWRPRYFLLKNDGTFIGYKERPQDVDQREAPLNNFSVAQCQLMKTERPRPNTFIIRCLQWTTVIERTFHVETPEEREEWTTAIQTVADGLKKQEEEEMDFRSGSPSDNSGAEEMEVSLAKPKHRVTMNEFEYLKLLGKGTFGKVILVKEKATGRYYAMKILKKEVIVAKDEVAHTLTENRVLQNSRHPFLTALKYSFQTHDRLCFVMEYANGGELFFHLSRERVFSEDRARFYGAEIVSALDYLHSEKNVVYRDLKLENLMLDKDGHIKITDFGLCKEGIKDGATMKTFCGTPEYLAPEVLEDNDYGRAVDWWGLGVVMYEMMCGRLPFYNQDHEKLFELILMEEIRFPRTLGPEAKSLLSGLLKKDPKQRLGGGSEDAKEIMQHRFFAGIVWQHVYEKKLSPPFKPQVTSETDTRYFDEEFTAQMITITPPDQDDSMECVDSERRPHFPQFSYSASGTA
Test: Live cell AKT1 E17K target engagement by NanoBRET competitive probe displacement
Conditions: HEK293 cells transfected with kinase-NanoLuciferase fusion, 2 h at 37° C.
parameter measured: IC50 (nM)

Recorded IC50, per entry:
C=CC(=O)N1CCC(N[C@H]2CCc3cc(-n4c(-c5ccccc5F)nc5ccc(-n6cccn6)nc54)ccc32)CC1: 5.56
C#Cc1cccc(-c2ccc3nc(-c4cccnc4N)n(-c4ccc5c(c4)CC[C@@H]5NC4CCN(C(=O)C=C)CC4)c3n2)c1: 18.1
C=CC(=O)N1CCC(N[C@@H]2c3ccc(-n4c(-c5cccnc5N)nc5ccc(-n6cccn6)nc54)cc3C[C@H]2F)CC1: 35.9
C=CC(=O)N1CCC(N[C@@H]2c3ccc(-n4c(-c5ccccc5)nc5ccc(-n6cccn6)nc54)cc3CC2F)CC1C(F)F (single isomer, unassigned) [Example 330]: 31
C=CC(=O)N1CCC(N[C@H]2CC(O)c3cc(-n4c(-c5cccnc5N)nc5ccc(-n6cccn6)nc54)ccc32)CC1 (single isomer, unassigned) [Example 218]: 52.3

(P) C=CC(=O)N1CCC(N[C@H]2CCc3cc(-n4c(-c5cccnc5N)nc5ccc(-n6cccn6)nc54)ccc32)CC1CC#N (single isomer, unassigned) [Example 338]
(Q) C=CC(=O)N1CCCC(N[C@H]2CCc3cc(-n4c(-c5cccnc5N)nc5ccc(-n6cccn6)nc54)ccc32)C1 (single isomer, unassigned) [Example 125]
(R) C=CC(=O)N1CCC(N[C@H]2CCc3cc(-n4c(-c5cccnc5N)nc5ccc(-n6nccn6)nc54)ccc32)C[C@H]1C (single isomer, unassigned) [Example 262]
(S) C=CC(=O)N1CCC(N[C@H]2CCc3cc(-n4c(-c5cccc(F)c5)nc5ccc(-n6cccn6)nc54)ccc32)CC1
Number of molecules to sort: 4. Sort criterion: IC50, ascending. When ranking, write the labels in the order the request describes.
P, R, S, Q
(P: 12.3 nM, R: 29.6 nM, S: 42.6 nM, Q: 914 nM)

(a) C=CC(=O)N1CCC(N[C@H]2CCc3cc(-n4c(-c5cccnc5N)nc5ccc(-n6ccc(C)n6)nc54)ccc32)CC1
(b) C=CC(=O)N1CCC(N[C@H]2CCc3cc(-n4c(-c5cccnc5N)nc5ccc(-n6cccn6)nc54)ccc3C2)CC1
Name the one with the greater IC50 value, either a or b as given. In your reply, give the label of the chosen option.
b

###

Target: AKT2 (Homo sapiens)
Assay: Live cell AKT2 target engagement by NanoBRET competitive probe displacement
Details: HEK293 cells transfected with kinase-NanoLuciferase fusion, 2 h at 37° C.
parameter measured: IC50 (µM)

Would you please look over these solved cases?
C=CC(=O)N1CC2CC[C@H]1CC2N[C@H]1CCc2cc(-n3c(-c4cccnc4N)nc4ccc(-n5cccn5)nc43)ccc21 (single isomer, unassigned) [Example 133]: 0.047
C=CC(=O)N1CCN(NC2CCc3cc(-n4c(-c5cccnc5N)nc5ccc(-n6cccn6)nc54)ccc32)CC1 (single isomer, unassigned) [Example 147]: 0.903

(P) C=CC(=O)N1CCC(N[C@@H]2c3ccc(-n4c(-c5cccnc5N)nc5ccc(-n6ccc(F)n6)nc54)cc3CC2F)C[C@@H]1C (single isomer, unassigned) [Example 273]
(Q) C=CC(=O)N1CCC(N[C@H]2CCc3cc(-n4c(-c5cccnc5N)nc5ccc(-n6cccn6)nc54)ccc32)C[C@@H]1C (single isomer, unassigned) [Example 65]
For the pair P and Q , which member has the lower IC50 number? Identify your pick by its label.
P
(P: 0.0279 µM, Q: 0.397 µM)

(P) C=CC(=O)N1[C@H](C)CC(N[C@H]2CCc3cc(-n4c(-c5cccnc5N)nc5ccc(-n6cccn6)nc54)ccc32)C[C@@H]1C (single isomer, unassigned) [Example 87]
(Q) C=CC(=O)N1CCC(N[C@@H]2c3ccc(-n4c(-c5cccnc5N)nc5ccc(-n6ccc(C7CC7)n6)nc54)cc3CC2F)CC1 (single isomer, unassigned) [Example 298]
Between these two entries, P and Q , state which has the higher IC50. Please respond with the label that marks your chosen entry.
P
(P: 0.577 µM, Q: 0.0573 µM)

(a) C=CC(=O)N1CCC(N[C@H]2CCc3cc(-n4c(-c5cccnc5N)nc5ccc(C6CC6)nc54)ccc32)C(F)C1 (single isomer, unassigned) [Example 176]
(b) C=CC(=O)Nc1cc(C(=O)N[C@H]2CCc3cc(-n4c(-c5cccnc5N)nc5ccc(-n6cccn6)nc54)ccc32)ccn1
Which one would you say has the larger IC50 value: a , or b ? Field: selected label. Fill in the label of the entry you choose.
a
(a: 0.484 µM, b: 0.0259 µM)

###

Target: AKT1 E17K (Homo sapiens, UniProt P31749, E17K)
Assay: Live cell AKT1 E17K target engagement by NanoBRET competitive probe displacement
Details: HEK293 cells transfected with kinase-NanoLuciferase fusion, 2 h at 37° C.
parameter measured: IC50 (nM)

C#CC1CC(N[C@H]2CCc3cc(-n4c(-c5cccnc5N)nc5ccc(-n6cccn6)nc54)ccc32)CCN1C(=O)C=C (single isomer, unassigned) [Example 114]: 8.34

(I) C=CC(=O)N1CCC(N[C@H]2CCc3cc(-n4c(-c5cccnc5N)nc5ccc(-n6cccn6)nc54)ccc32)C(OC)C1 (single isomer, unassigned) [Example 115]
(II) C=CC(=O)N1CCN(NC2CCc3cc(-n4c(-c5cccnc5N)nc5ccc(-n6cccn6)nc54)ccc32)CC1 (single isomer, unassigned) [Example 148]
(III) C=CC(=O)N1CCC(N[C@@H]2c3ccc(-n4c(-c5cccnc5N)nc5ccc(-n6ccc(F)n6)nc54)cc3CC2F)CC1 (single isomer, unassigned) [Example 237]
(IV) C=CC(=O)N1CCN(NC2CCc3cc(-n4c(-c5cccnc5N)nc5ccc(-n6cccn6)nc54)ccc32)CC1 (racemic) [Example 77]
Sort ascending by IC50. Dear reader, please state the labels in the requested order.
I, III, II, IV
(I: 9.26 nM, III: 17.7 nM, II: 38 nM, IV: 86.3 nM)

(1) C=CC(=O)N1CCC(CN[C@H]2CCc3cc(-n4c(-c5cccnc5N)nc5ccc(-n6cccn6)nc54)ccc32)(OC)CC1 [Example 183]
(2) C=CC(=O)N1CCC(N[C@H]2CCc3cc(-n4c(-c5cccnc5N)nc5ccc(-n6cccn6)nc54)ccc32)C(C)C1 (single isomer, unassigned) [Example 102]
Return label of the item with the larger IC50. Candidates: 1 , 2 . Write down the label attached to your selection.
1
(1: 99.4 nM, 2: 35.4 nM)

(A) C#CC1CC(N[C@H]2CCc3cc(-n4c(-c5cccnc5N)nc5ccc(-n6cccn6)nc54)ccc32)CCN1C(=O)C=C (single isomer, unassigned) [Example 111]
(B) C=CC(=O)N1CCC(N[C@H]2CCc3cc(-n4c(-c5cccnc5N)nc5ccc(N6CCC(F)(F)CC6)nc54)ccc32)CC1 [Example 186]
(C) C=CC(=O)N1CCC(N[C@H]2CCc3cc(-n4c(-c5cccnc5N)nc5ccc(-n6cccn6)nc54)ccc32)c2ccccc21 (single isomer, unassigned) [Example 127]
(D) C=CC(=O)N1CCC(N[C@H]2CCc3cc(-n4c(-c5cccnc5N)nc5ccc(-n6ccc(C7(C#N)CC7)n6)nc54)ccc32)CC1 [Example 322]
(E) C=CC(=O)NC1CCC(N[C@H]2CCc3cc(-n4c(-c5cccnc5N)nc5ccc(-n6cccn6)nc54)ccc32)CC1 (single isomer, unassigned) [Example 47]
Sort (5 molecules) by IC50: min first. Quick reminder: the answer is the labels in the order asked.
D, C, B, A, E
(D: 5.51 nM, C: 8.17 nM, B: 30.6 nM, A: 127 nM, E: 548 nM)

###

Target: AKT2 (Homo sapiens, UniProt P31751)
Sequence (P31751 whole entry): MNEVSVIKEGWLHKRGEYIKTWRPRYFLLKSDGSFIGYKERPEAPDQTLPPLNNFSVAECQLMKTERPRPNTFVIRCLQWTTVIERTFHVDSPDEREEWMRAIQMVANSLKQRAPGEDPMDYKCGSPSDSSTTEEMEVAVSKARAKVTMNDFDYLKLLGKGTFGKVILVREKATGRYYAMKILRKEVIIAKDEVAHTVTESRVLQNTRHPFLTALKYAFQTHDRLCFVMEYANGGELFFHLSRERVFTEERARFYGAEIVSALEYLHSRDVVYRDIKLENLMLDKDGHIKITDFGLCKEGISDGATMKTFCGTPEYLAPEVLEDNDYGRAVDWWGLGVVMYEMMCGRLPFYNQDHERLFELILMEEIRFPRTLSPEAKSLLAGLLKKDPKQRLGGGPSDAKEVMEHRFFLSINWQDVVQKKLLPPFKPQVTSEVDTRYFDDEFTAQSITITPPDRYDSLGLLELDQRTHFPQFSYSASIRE
Assay: Live cell AKT2 target engagement by NanoBRET competitive probe displacement
Conditions: HEK293 cells transfected with kinase-NanoLuciferase fusion, 2 h at 37° C.
pIC50: −log10 of the molar value.
parameter measured: pIC50

The cases that follow already have their pIC50 on record.
CC#CC(=O)Nc1ccccc1C(=O)N[C@H]1CCc2cc(-n3c(-c4cccnc4N)nc4ccc(-n5cccn5)nc43)ccc21: 6.36
C=CC(=O)N1CCC(N[C@H]2CC(O)c3cc(-n4c(-c5cccnc5N)nc5ccc(-n6cccn6)nc54)ccc32)CC1 (single isomer, unassigned) [Example 219]: 7.02

(P) C=CC(=O)N1CCC(N[C@H]2CCc3cc(-n4c(-c5cccnc5N)nc5ccc(-n6cccn6)nc54)ccc32)C(C)(F)C1 (stereo partly drawn) [Example 308]
(Q) CN(C)C/C=C/C(=O)N1CCC(N[C@H]2CCc3cc(-n4c(-c5cccnc5N)nc5ccc(-n6cccn6)nc54)ccc32)CC1
Kindly identify which of P and Q has the larger recorded pIC50 value. Give the chosen item's label as your response.
P
(P: 7.21, Q: 5.92)
